The origin of these recorded values is paper PMC3791462.

ASSAY SYSTEM: the molecule itself
ASSAY EXPLANATION: SEC; Superdex 200 10/300 GL, buffer A (10 mM Tris-HCl pH 7.5, 100 mM NaCl, 0.52% HEGA-10); detergent-solubilised protein
OBSERVABLE: stoichiometry N

>>> result_number("NavMs-pore+CTD A232C, PROXYL spin-labelled (domain or fragment, Magnetococcus marinus MC-1, UniProt A0L5S6 130-274, looked up, 3-(2-iodoacetamido)-PROXYL nitroxide spin label on cysteine 232, source: E. coli C41(DE3), purified (HisTrap HP, thrombin, size exclusion), spin-labelled) GVGSVAALLTVVFYIAAVMATNLYGATFPEWFGDLSKSLYTLFQVMTLESWSMGIVRPVMNVHPNAWVFFIPFIMLTTFTVLNLFIGIIVDAMAITKEQEEECKTGHHQEPISQTLLHLGDRLDRIEKQLAQNNELLQRQQPQKK")
4
>>> result_number("NavMs-pore+CTD D250C, PROXYL spin-labelled (domain or fragment, Magnetococcus marinus MC-1, UniProt A0L5S6 130-274, looked up, 3-(2-iodoacetamido)-PROXYL nitroxide spin label on cysteine 250, source: E. coli C41(DE3), purified (HisTrap HP, thrombin, size exclusion), spin-labelled) GVGSVAALLTVVFYIAAVMATNLYGATFPEWFGDLSKSLYTLFQVMTLESWSMGIVRPVMNVHPNAWVFFIPFIMLTTFTVLNLFIGIIVDAMAITKEQEEEAKTGHHQEPISQTLLHLGCRLDRIEKQLAQNNELLQRQQPQKK")
4
>>> result_number("NavMs-pore+CTD I241C, PROXYL spin-labelled (domain or fragment, Magnetococcus marinus MC-1, UniProt A0L5S6 130-274, looked up, 3-(2-iodoacetamido)-PROXYL nitroxide spin label on cysteine 241, source: E. coli C41(DE3), purified (HisTrap HP, thrombin, size exclusion), spin-labelled) GVGSVAALLTVVFYIAAVMATNLYGATFPEWFGDLSKSLYTLFQVMTLESWSMGIVRPVMNVHPNAWVFFIPFIMLTTFTVLNLFIGIIVDAMAITKEQEEEAKTGHHQEPCSQTLLHLGDRLDRIEKQLAQNNELLQRQQPQKK")
4
>>> result_number("NavMs-pore+CTD K273C, PROXYL spin-labelled (domain or fragment, Magnetococcus marinus MC-1, UniProt A0L5S6 130-274, looked up, 3-(2-iodoacetamido)-PROXYL nitroxide spin label on cysteine 273, source: E. coli C41(DE3), purified (HisTrap HP, thrombin, size exclusion), spin-labelled) GVGSVAALLTVVFYIAAVMATNLYGATFPEWFGDLSKSLYTLFQVMTLESWSMGIVRPVMNVHPNAWVFFIPFIMLTTFTVLNLFIGIIVDAMAITKEQEEEAKTGHHQEPISQTLLHLGDRLDRIEKQLAQNNELLQRQQPQCK")
4
>>> result_number("NavMs-pore+CTD A223C, PROXYL spin-labelled (domain or fragment, Magnetococcus marinus MC-1, UniProt A0L5S6 130-274, looked up, 3-(2-iodoacetamido)-PROXYL nitroxide spin label on cysteine 223, source: E. coli C41(DE3), purified (HisTrap HP, thrombin, size exclusion), spin-labelled) GVGSVAALLTVVFYIAAVMATNLYGATFPEWFGDLSKSLYTLFQVMTLESWSMGIVRPVMNVHPNAWVFFIPFIMLTTFTVLNLFIGIIVDAMCITKEQEEEAKTGHHQEPISQTLLHLGDRLDRIEKQLAQNNELLQRQQPQKK")
4
>>> result_number("NavMs-pore+CTD A260C, PROXYL spin-labelled (domain or fragment, Magnetococcus marinus MC-1, UniProt A0L5S6 130-274, looked up, 3-(2-iodoacetamido)-PROXYL nitroxide spin label on cysteine 260, source: E. coli C41(DE3), purified (HisTrap HP, thrombin, size exclusion), spin-labelled) GVGSVAALLTVVFYIAAVMATNLYGATFPEWFGDLSKSLYTLFQVMTLESWSMGIVRPVMNVHPNAWVFFIPFIMLTTFTVLNLFIGIIVDAMAITKEQEEEAKTGHHQEPISQTLLHLGDRLDRIEKQLCQNNELLQRQQPQKK")
4
>>> result_number("NavMs-pore+CTD (wild-type pore with full-length C-terminal domain of the NavMs sodium channel from Magnetococcus marinus MC-1) (domain or fragment, UniProt A0L5S6 130-274, looked up, Plasmid pET15b; also called unlabelled wild-type construct; wild-type pore+CTD protein; source: E. coli C41(DE3), purified (HisTrap HP, thrombin, second HisTrap HP, size exclusion) in HEGA-10) GVGSVAALLTVVFYIAAVMATNLYGATFPEWFGDLSKSLYTLFQVMTLESWSMGIVRPVMNVHPNAWVFFIPFIMLTTFTVLNLFIGIIVDAMAITKEQEEEAKTGHHQEPISQTLLHLGDRLDRIEKQLAQNNELLQRQQPQKK")
4
